Target: Neuronal acetylcholine receptor subunit alpha-7 (Homo sapiens)
Sequence (P36544 whole entry): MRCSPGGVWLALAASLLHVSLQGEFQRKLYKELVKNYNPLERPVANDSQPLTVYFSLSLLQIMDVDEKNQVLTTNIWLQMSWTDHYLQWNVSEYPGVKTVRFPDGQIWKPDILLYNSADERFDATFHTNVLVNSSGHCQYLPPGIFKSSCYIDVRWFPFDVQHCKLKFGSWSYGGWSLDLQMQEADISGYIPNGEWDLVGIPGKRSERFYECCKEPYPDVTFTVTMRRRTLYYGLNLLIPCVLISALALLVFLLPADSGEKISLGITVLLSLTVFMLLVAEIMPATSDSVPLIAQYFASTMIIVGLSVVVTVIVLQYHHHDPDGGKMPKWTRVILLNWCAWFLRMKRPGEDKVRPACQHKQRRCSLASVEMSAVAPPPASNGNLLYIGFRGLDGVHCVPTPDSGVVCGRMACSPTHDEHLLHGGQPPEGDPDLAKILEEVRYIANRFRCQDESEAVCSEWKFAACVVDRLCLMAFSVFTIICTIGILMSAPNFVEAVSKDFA
Experiment: Antagonist activity at human alpha-7 nAChR in tsA201 cells coexpressed with Ric3 by FMP assay
Assay type: functional, cell-based
Details: read-out: pIC50 (converted)
Consider the following compounds and their measured IC50 readings.

Query: Report IC50 for C1=C2C[N+]3(Cc4ccccc4)CC[C@@H]4[C@@H]5[C@H]([C@@H](OC1)N1c6ccccc6[C@@]67CC[N+]8(Cc9ccccc9)CC9=CCO[C@H]([C@@H]([C@H]16)[C@H]9C[C@@H]78)N5c1ccccc1)[C@H]2C[C@@H]43.[Br-].[Br-] (stereo partly drawn)
Response: 4.47 µM

Query: Report IC50 for C[N+](C)(C)Cc1c2n(c3ccccc13)Cc1c(C[N+](C)(C)C)c3ccccc3n1C2.[I-].[I-]
Response: 100 µM

Query: Report IC50 for Brc1ccc(C[N+]23CC[C@@H]4[C@@H]5[C@@H]6[C@@H](OCC=C(C2)[C@@H]6C[C@@H]43)N2c3ccccc3[C@@]34CC[N+]6(Cc7ccc(Br)cc7)CC7=CCO[C@H]([C@@H]([C@H]23)[C@H]7C[C@@H]46)N5c2ccccc2)cc1.[Br-].[Br-] (stereo partly drawn)
Response: 10.5 µM

---

Target: Neuronal acetylcholine receptor; alpha3/beta4 (Rattus norvegicus, UniProt P04757+P12392)
Sequence (P04757 whole entry): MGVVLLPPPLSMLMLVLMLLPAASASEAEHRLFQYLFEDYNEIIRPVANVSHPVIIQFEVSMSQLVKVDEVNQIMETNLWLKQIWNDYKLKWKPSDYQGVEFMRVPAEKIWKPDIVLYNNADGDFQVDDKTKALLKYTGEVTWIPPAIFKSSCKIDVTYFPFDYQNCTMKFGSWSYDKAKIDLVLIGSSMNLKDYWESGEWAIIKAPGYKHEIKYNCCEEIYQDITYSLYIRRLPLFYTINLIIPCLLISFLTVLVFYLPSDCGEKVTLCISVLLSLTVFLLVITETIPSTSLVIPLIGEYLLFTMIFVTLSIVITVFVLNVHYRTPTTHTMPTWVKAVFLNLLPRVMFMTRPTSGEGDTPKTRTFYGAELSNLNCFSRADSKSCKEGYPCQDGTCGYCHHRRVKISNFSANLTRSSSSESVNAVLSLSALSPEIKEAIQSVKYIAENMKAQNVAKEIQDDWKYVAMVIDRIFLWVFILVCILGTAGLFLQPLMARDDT
Sequence (P12392 whole entry): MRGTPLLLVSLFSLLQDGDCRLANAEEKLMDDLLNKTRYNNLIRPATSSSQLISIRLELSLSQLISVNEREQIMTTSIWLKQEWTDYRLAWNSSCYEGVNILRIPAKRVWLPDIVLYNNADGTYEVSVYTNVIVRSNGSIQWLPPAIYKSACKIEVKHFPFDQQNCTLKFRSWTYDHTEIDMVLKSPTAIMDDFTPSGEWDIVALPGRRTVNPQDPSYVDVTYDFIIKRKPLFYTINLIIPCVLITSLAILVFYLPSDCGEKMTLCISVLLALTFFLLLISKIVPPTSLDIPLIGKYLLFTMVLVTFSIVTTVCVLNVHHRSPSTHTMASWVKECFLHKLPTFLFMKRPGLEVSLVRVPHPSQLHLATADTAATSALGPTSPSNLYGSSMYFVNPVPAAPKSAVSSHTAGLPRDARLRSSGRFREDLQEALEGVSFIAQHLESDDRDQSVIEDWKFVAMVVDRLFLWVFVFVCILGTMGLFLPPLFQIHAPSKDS
Assay: Antagonist activity at rat alpha3beta4 nAChR expressed in HEK293 cells by FMP assay
Type: functional, cell-based, Homo sapiens
Settings: read-out: IC50
Consider the following compounds and their measured pIC50 readings.
pIC50 is defined as minus the log10 of a concentration measured in mol/L.

Query: Report pIC50 for C1=C2CN3CC[C@@H]4[C@@H]5[C@H]([C@@H](OC1)N1c6ccccc6[C@@]67CCN8CC9=CCO[C@H]([C@@H]([C@H]16)[C@H]9C[C@H]87)N5c1ccccc1)[C@H]2C[C@@H]43
Response: 4.96

From here, focus on the item given below.
Query: Report pIC50 for C[N+]12CC[C@@H]3[C@@H]4[C@@H]5[C@@H](OCC=C(C1)[C@@H]5C[C@@H]32)N1c2ccccc2[C@@]23CC[N+]5(C)CC6=CCO[C@H]([C@@H]([C@H]12)[C@H]6C[C@@H]35)N4c1ccccc1.[I-].[I-] (some centres undefined)
Response: 4.52

---

Consider the following compounds and their measured Ki readings.
Biological target: UniProt P46098
Sequence (P46098 whole entry): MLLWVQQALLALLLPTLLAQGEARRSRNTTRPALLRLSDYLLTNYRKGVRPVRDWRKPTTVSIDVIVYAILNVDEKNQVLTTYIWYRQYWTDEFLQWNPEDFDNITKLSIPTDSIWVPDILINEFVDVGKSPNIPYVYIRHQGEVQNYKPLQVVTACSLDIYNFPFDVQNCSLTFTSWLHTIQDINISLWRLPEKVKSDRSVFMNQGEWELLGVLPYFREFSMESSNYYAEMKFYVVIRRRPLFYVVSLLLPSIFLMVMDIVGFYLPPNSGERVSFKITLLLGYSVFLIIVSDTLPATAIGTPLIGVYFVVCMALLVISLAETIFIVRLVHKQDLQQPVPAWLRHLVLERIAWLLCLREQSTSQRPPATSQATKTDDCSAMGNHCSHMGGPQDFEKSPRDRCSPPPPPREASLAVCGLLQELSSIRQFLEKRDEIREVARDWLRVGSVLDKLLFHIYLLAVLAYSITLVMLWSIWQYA
Assay: Displacement of [3H]GR65630 from human 5HT3A receptor in HEK293 cells
Write the number in µM without appending the unit.

Please review the entries below; each comes with its answer.
Query: Report Ki for C[N+]12CC[C@@H]3[C@@H]4/C(=C\N5c6ccccc6[C@@]67CC[N+]8(C)CC9=CCO[C@H]([C@@H]([C@H]56)[C@H]9C[C@@H]78)N4c4ccccc4)[C@@H](C[C@@H]31)/C(=C\CO)C2.[I-].[I-] (stereo partly specified)
Response: 5.9

Query: Report Ki for OC/C=C1/C[N+]2(C3C=CCCC3)CC[C@@H]3[C@@H]4/C(=C\N5c6ccccc6[C@@]67CC[N+]8(C9C=CCCC9)CC9=CCO[C@H]([C@@H]([C@H]56)[C@H]9C[C@@H]78)N4c4ccccc4)[C@H]1C[C@@H]32.[Br-].[Br-] (stereo partly specified)
Response: 40

Query: Report Ki for OC/C=C1/CN2CC[C@H]3[C@@H]2C[C@@H]1/C1=C/N2c4ccccc4[C@@]45CCN6CC7=CCO[C@H]([C@@H]([C@H]24)[C@H]7C[C@H]65)N(c2ccccc2)[C@@H]13
Response: 1.9

Next:
Query: Report Ki for C1=C2CN3CC[C@@H]4[C@@H]5[C@H]([C@@H](OC1)N1c6ccccc6[C@@]67CCN8CC9=CCO[C@H]([C@@H]([C@H]16)[C@H]9C[C@H]87)N5c1ccccc1)[C@H]2C[C@@H]43
Response: 3.1
